Biological target: GST-tagged recombinant full-length human Pim-2 (Homo sapiens)
Construct: GST-tagged recombinant full-length human Pim-2; GST
Sequence (Q9P1W9 whole entry): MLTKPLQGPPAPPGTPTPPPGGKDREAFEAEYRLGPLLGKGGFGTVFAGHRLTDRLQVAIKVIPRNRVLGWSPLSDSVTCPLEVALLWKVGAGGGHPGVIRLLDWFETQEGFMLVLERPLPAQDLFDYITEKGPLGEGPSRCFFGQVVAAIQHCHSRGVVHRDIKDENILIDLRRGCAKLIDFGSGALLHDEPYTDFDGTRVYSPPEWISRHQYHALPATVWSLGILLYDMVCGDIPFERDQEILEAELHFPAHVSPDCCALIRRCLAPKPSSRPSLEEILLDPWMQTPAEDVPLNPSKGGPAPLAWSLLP
Assay: PIM-2 Assay (as Example A)
Conditions: averaged IC50; 4 μM ATP, 1.0 μM PIM2tide, 1.5 nM Pim-2
Structures can show the parent of a compound that is named as a salt.
// reported IC50 for each item listed

Below are worked cases with known answers.
Give IC50 (GST-tagged recombinant full-length human Pim-2 (Homo sapiens)) of the following molecule: CC(C)Oc1cccc2ccc(-c3nnc4ccc([C@@H](N5CC[C@@](C)(N)C5)C(F)(F)F)cn34)nc12 [Example 91, dihydrochloride]
> 100 nM

Give IC50 (GST-tagged recombinant full-length human Pim-2 (Homo sapiens)) of the following molecule: Cn1cc(-c2ccc3ccc(-c4nnc5ccc([C@@H](N6CC[C@H](N)C6)C(F)(F)F)cn45)nc3c2F)cn1 [Example 171, tri-hydrochloride]
> 100 nM

Give IC50 (GST-tagged recombinant full-length human Pim-2 (Homo sapiens)) of the following molecule: COc1ccc2ccc(-c3nnc4ccc([C@@H](N5CC[C@H](N)C5)C(F)(F)F)cn34)nc2c1F [Example 167, dihydrochloride]
> 100 nM

Continuing:
Give IC50 (GST-tagged recombinant full-length human Pim-2 (Homo sapiens)) of the following molecule: Cn1cc(-c2ccc3ccc(-c4nnc5ccc([C@@H](N6CC[C@H](N)C6)C(F)(F)F)cn45)nc3c2)cn1 (single isomer, unassigned) [Example 15, tri-hydrochloride]
59 nM

* * *

Molecular target: GST-tagged recombinant full-length human Pim-2 (Homo sapiens)
Construct: GST-tagged recombinant full-length human Pim-2; GST
Test: PIM-2 Assay (as Example A)
Settings: averaged IC50; 4 μM ATP, 1.0 μM PIM2tide, 1.5 nM Pim-2
Where a name gives a salt, the structure may show the parent alone.
measurement label: IC50 (nM)

Below are worked cases with known answers.
// query IC50 value for entry CCOc1cc2nc(-c3nnc4ccc([C@H](N5CC[C@](C)(N)C5)C(F)(F)F)cn34)ccc2cc1F [Example 220]
72

// query IC50 value for entry N[C@H]1CCN(C(c2ccc3nnc(-c4ccc5ccc(Br)cc5n4)n3c2)C(F)(F)F)C1 (stereo partly drawn) [Example 2, dihydrochloride]
74

// query IC50 value for entry CC(C)(C)NC(=O)c1ccc2ccc(-c3nnc4ccc([C@@H](N5CC[C@@H](N)C5)C(F)(F)F)cn34)nc2c1 [Example 54, dihydrochloride]
67

// query IC50 value for entry N[C@H]1CCN([C@H](c2ccc3nnc(-c4ccc5cc(F)cc(OCC(F)(F)F)c5n4)n3c2)C(F)(F)F)C1 [Example 232, dihydrochloride]
206

1. C[C@H](CO)Oc1cc(F)cc2ccc(-c3nnc4ccc([C@@H](N5CC[C@H](N)C5)C(F)(F)F)cn34)nc12 [Example 238, dihydrochloride]
2. CCOc1cc2nc(-c3nnc4ccc([C@H](N5CC[C@@](C)(N)C5)C(F)(F)F)cn34)ccc2cc1F [Example 294, hydrochloride]
Form field 'greater IC50' accepts 1 or 2 ; which applies? // output: label of the selected item
1
(1: 166 nM, 2: 94 nM)

* * *

Target: recombinant rat PIM-3 (Rattus norvegicus, UniProt O70444)
Test: PIM-3 Assay (as Example A)
Assay type: biochemical
Conditions: averaged IC50; 30 μM ATP, 3.75 μM PIM2tide, 0.5 nM PIM-3
Counter-ions that a name gives are not always drawn.
measurement label: IC50 (nM)

Below are worked cases with known answers.
// query IC50 value for entry CC1(NC(=O)c2ccc3ccc(-c4nnc5ccc([C@@H](N6CC[C@H](N)C6)C(F)(F)F)cn45)nc3c2)CC1 [Example 53, dihydrochloride]
0.3

// query IC50 value for entry N[C@H]1CCN([C@H](c2ccc3nnc(-c4ccc5ccc(O[C@H]6CCC[C@@H]6O)cc5n4)n3c2)C(F)(F)F)C1 (single isomer, unassigned; diastereomer 1) [Example 319, di-hydrochloride]
0.3

// query IC50 value for entry CC(C)(C)c1cccc2ccc(-c3nnc4ccc([C@@H](N5C[C@@H](N)[C@H](O)C5)C(F)(F)F)cn34)nc12 [Example 145, dihydrochloride]
0.7

// query IC50 value for entry CC(C)C(=O)Nc1ccc2ccc(-c3nnc4ccc(C(N5CC[C@H](N)C5)C(F)(F)F)cn34)nc2c1 (stereo partly shown)
0.2

// query IC50 value for entry CN(C)C(=O)c1ccc2ccc(-c3nnc4ccc([C@@H](N5CC[C@H](N)C5)C(F)(F)F)cn34)nc2c1 [Example 35, dihydrochloride]
39

// query IC50 value for entry CCOc1cc2nc(-c3nnc4ccc([C@H](N5CC[C@@](C)(N)C5)C(F)(F)F)cn34)ccc2cc1F [Example 294, hydrochloride]
0.7

// query IC50 value for entry CC(C)(C)NC(=O)c1ccc2ccc(-c3nnc4ccc([C@@H](N5CC[C@@H](N)C5)C(F)(F)F)cn34)nc2c1 [Example 54, dihydrochloride]
0.6

// query IC50 value for entry N[C@H]1CCN(C(c2ccc3nnc(-c4ccc5ccc(C6CC6)cc5n4)n3c2)C(F)(F)F)C1 (stereo partly shown) [Example 3, dihydrochloride]
0.3

1. CC(C)(C)c1cccc2ccc(-c3nnc4ccc([C@@H](N5C[C@@H](O)[C@H](O)C5)C(F)(F)F)cn34)nc12
2. COCCc1ccc2ccc(-c3nnc4ccc([C@H](N5CC[C@](C)(N)C5)C(F)(F)F)cn34)nc2c1 [Example 300, dihydrochloride]
# compare IC50 for 1 vs 2 ; return the one with the smaller value // output: label of the selected item
2

* * *

Biological target: recombinant rat PIM-3 (Rattus norvegicus, UniProt O70444)
Experiment: PIM-3 Assay (as Example A)
Conditions: averaged IC50; 30 μM ATP, 3.75 μM PIM2tide, 0.5 nM PIM-3
pIC50: −log10 of the molar value. Structures can show the parent of a compound that is named as a salt.
measurement label: pIC50

Below are worked cases with known answers.
// query pIC50 value for entry CN[C@H]1CCN([C@H](c2ccc3nnc(-c4ccc5ccc(C(=O)NC(C)(C)C)cc5n4)n3c2)C(F)(F)F)C1 [Example 58]
9.15

// query pIC50 value for entry COCC1(c2cccc3ccc(-c4nnc5ccc([C@@H](N6CC[C@H](N)C6)C(F)(F)F)cn45)nc23)CC1 [Example 112, dihydrochloride]
8.85

// query pIC50 value for entry CCOCCOc1ccc2ccc(-c3nnc4ccc([C@@H](N5CC[C@H](N)C5)C(F)(F)F)cn34)nc2c1 [Example 274, dihydrochloride]
8.77

I. CC(C)Oc1cccc2ccc(-c3nnc4ccc([C@@H](N5CC[C@](N)(CF)C5)C(F)(F)F)cn34)nc12 (single isomer, unassigned) [Example 155, dihydrochloride]
II. CCOCCOc1ccc2ccc(-c3nnc4ccc([C@H](N5CC[C@](C)(N)C5)C(F)(F)F)cn34)nc2c1 [Example 306]
# compare pIC50 for I vs II ; return the one with the smaller value // output: label of the selected item
I

* * *

Target: recombinant rat PIM-3 (Rattus norvegicus)
Experiment: PIM-3 Assay (as Example A)
Details: averaged IC50; 30 μM ATP, 3.75 μM PIM2tide, 0.5 nM PIM-3
Structures can show the parent of a compound that is named as a salt.
measurement label: IC50 (nM)

Below are worked cases with known answers.
// query IC50 value for entry Cn1cc(-c2ccc3ccc(-c4nnc5ccc(C(N6CC[C@H](N)C6)C(F)(F)F)cn45)nc3c2)cn1 (stereo partly drawn) [Example 4, trihydrochloride]
12

// query IC50 value for entry N[C@H]1CCN(C(c2ccc3nnc(-c4ccc5ccc(C(F)(F)F)cc5n4)n3c2)C(F)(F)F)C1 (stereo partly drawn) [Example 29, dihydrochloride]
47

// query IC50 value for entry C[C@H](CO)Oc1cc(F)cc2ccc(-c3nnc4ccc([C@@H](N5CC[C@H](N)C5)C(F)(F)F)cn34)nc12 [Example 238, dihydrochloride]
0.6

// query IC50 value for entry FC(F)(F)[C@@H](c1ccc2nnc(-c3ccc4cccc(C5CC5)c4n3)n2c1)N1C[C@@H]2C[C@H]1CN2 [Example 65, dihydrochloride]
2

// query IC50 value for entry C[C@@]1(N)CCN([C@@H](c2ccc3nnc(-c4ccc5cccc(C6CC6)c5n4)n3c2)C(F)(F)F)C1 [Example 94, dihydrochloride]
4.6

A. CC(C)Oc1cc(F)cc2ccc(-c3nnc4ccc([C@H](N5CCC(C)(O)C5)C(F)(F)F)cn34)nc12 (single isomer, unassigned; diastereomer 2) [Example 203, hydrochloride]
B. Cn1cc(-c2ccc3ccc(-c4nnc5ccc([C@H](N6CC[C@](C)(N)C6)C(F)(F)F)cn45)nc3c2)cn1 [Example 222, dihydrochloride]
C. COc1ccc2ccc(-c3nnc4ccc([C@@H](N5CC[C@H](N)C5)C(F)(F)F)cn34)nc2c1F [Example 167, dihydrochloride]
Your job: order these 3 records by IC50, ascending. Quick reminder: the answer is the labels in the order asked.
B, C, A

* * *

Biological target: recombinant rat PIM-3 (Rattus norvegicus, UniProt O70444)
Test: PIM-3 Assay (as Example A)
Settings: averaged IC50; 30 μM ATP, 3.75 μM PIM2tide, 0.5 nM PIM-3
Structures can show the parent of a compound that is named as a salt.
measurement label: IC50 (nM)

Below are worked cases with known answers.
Give IC50 (recombinant rat PIM-3 (Rattus norvegicus, UniProt O70444)) of the following compound: CC(C)Oc1cccc2ccc(-c3nnc4ccc([C@@H](N5C[C@@H](O)[C@H](O)C5)C(F)(F)F)cn34)nc12 [Example 72]
2.9

Give IC50 (recombinant rat PIM-3 (Rattus norvegicus, UniProt O70444)) of the following compound: CCc1cccc2ccc(-c3nnc4ccc([C@@H](N5CC[C@H](N)C5)C(F)(F)F)cn34)nc12 [Example 37, dihydrochloride]
0.8

A. CC(C)(C)NC(=O)c1ccc2ccc(-c3nnc4ccc([C@@H](N5CC[C@H](N)C5)C(F)(F)F)cn34)nc2c1C1CC1 [Example 83, dihydrochloride]
B. COCCOc1ccc2ccc(-c3nnc4ccc([C@@H](N5CC[C@H](N)C5)C(F)(F)F)cn34)nc2c1F [Example 179, dihydrochloride]
C. CC(C)N[C@H]1CCN(C(c2ccc3nnc(-c4ccc5cccc(OCC6CC6)c5n4)n3c2)C(F)(F)F)C1 (stereo partly drawn) [Example 32, dihydrochloride]
Your job: order these 3 records by IC50, ascending. Quick reminder: the answer is the labels in the order asked.
A, B, C
